Attribution: patent US9353089B2

- target-of-assay: recombinant human BACE1 (Homo sapiens)
- Sequence (P56817 46-501 limits assumed): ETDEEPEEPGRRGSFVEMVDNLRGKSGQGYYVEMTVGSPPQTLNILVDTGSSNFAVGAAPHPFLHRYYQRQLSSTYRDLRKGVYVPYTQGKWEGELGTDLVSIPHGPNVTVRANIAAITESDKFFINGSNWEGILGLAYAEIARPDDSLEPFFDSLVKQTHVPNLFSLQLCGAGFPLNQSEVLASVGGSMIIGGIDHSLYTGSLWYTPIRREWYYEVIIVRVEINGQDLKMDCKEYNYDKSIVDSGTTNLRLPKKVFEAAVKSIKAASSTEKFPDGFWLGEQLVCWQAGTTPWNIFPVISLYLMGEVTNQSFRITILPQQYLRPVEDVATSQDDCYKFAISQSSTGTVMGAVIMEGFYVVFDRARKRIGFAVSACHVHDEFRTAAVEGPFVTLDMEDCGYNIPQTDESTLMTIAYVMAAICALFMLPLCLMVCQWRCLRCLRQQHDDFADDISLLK
- method-summary: β-Secretase (BACE1) enzyme inhibition FRET assay
- Format: biochemical
- conditions: Table 12; read-out: BACE1 IC50
pIC50: −log10 of the molar value.
Please provide measured pIC50 for the entries that follow.

Known results for compounds:
COc1cccc(-c2cccc(C3(C4CC4)NC(=N)N(C4CCOCC4)C3=O)c2)c1 (stereo not drawn) | ~5.40
COc1cccc(-c2cccc(C3(c4ccccc4)NC(=N)N(C4CCCCC4)C3=O)c2)c1 (stereo not drawn) | ~5.05

Please examine the following record next.
Quick note, pIC50 for COc1cccc(-c2cccc(C3(C4CC4)NC(=N)N(C4CCCCC4)C3=O)c2)c1 (stereo not drawn) landed at ~5.15
